# credit: ChEMBL document CHEMBL4513216

Test system: Plasmodium berghei
Assay: Screen against P. berghei liver stage (PbLuc), transformed with Luciferase, at 10uM
Assay type: functional, HepG2
Conditions: tested at 10 uM
Screen size: about 69,000 compounds; about 8,600 (12%) showed an effect of 50% or more. The sample as a whole holds a higher share of strong results than the screen did.
Rule: INHIBITION below 20% gives Met. Equal to or above 20% gives Not met.

compound=CCC(=O)N1CCN(c2cc(N(C)C)cnn2)CC1 assignedlabel=Met
compound=CC(C)CC(=O)N1CCN(c2cc(N(C)C)cnn2)CC1 assignedlabel="Not met"
compound="Cn1ncc2c1NC(=O)CC2c1cc2c(cc1Cl)OCO2 (stereo unspecified)" assignedlabel="Not met"
compound="CCCn1nnnc1COC(=O)C1Cc2cc(Cl)ccc2O1 (stereo unspecified)" assignedlabel="Not met"
compound=O=S(=O)(NC1=NCN(CCc2cccs2)CN1)c1ccc(Cl)cc1 assignedlabel=Met
compound=Cc1cc(C(=O)N2CCN(C(=O)CCC3CCCCC3)CC2)n(C)n1 assignedlabel="Not met"
